# ASSAY_TEXT: Solubility in PBS
# Type: physicochemical
# ASSAY_CONTEXT: Solubility (uM)
ENDPOINT: Solubility (µM)
# number only, unit µM dropped from output

Recorded results for 2 compounds are shown here.
CC(=O)N1CCC[C@]12CC=CCCCC1(CCCC=CCCCOC(=O)N3CC[C@@](C(=O)N[C@@H](Cc4ccsc4)C(=O)N[C@@H](Cc4csc5ccccc45)C(=O)N[C@@H](CCC(N)=O)C(=O)N[C@@H](CCCCNC(=O)C4CCN(C5CCN(C)CC5)CC4)C(N)=O)(C3)NC(=O)[C@H](CC(N)=O)NC(=O)[C@H](Cc3ccccc3)NC(=O)[C@H](C)NC(=O)[C@H](C)NC(=O)[C@H](CC(=O)O)NC(=O)[C@H](CC(=O)O)NC1=O)NC(=O)[C@H](CC(C)(C)C)NC(=O)[C@H](CC(=O)O)NC2=O (some centres unmarked) | 20
CCCC(=O)NCCCC[C@H](NC(=O)[C@H](CCC(N)=O)NC(=O)[C@H](Cc1csc2ccccc12)NC(=O)[C@H](Cc1ccsc1)NC(=O)[C@]12CCN(C1)C(=O)OCCCC=CCCCC1(CCCC=CC[C@]3(CCCN3C(C)=O)C(=O)N[C@@H](CC(=O)O)C(=O)N[C@@H](CC(C)(C)C)C(=O)N1)C(=O)N[C@@H](CC(=O)O)C(=O)N[C@@H](CC(=O)O)C(=O)N[C@@H](C)C(=O)N[C@@H](C)C(=O)N[C@@H](Cc1ccccc1)C(=O)N[C@@H](CC(N)=O)C(=O)N2)C(N)=O (some centres unmarked) | 44

Input: I am curious: what Solubility value has been reported for CC(=O)N1CCC[C@]12CC=CCCCC1(CCCC=CCCCOC(=O)N3CC[C@@](C(=O)N[C@@H](Cc4ccccc4)C(=O)N[C@@H](Cc4csc5ccccc45)C(=O)N[C@@H](CCC(N)=O)C(N)=O)(C3)NC(=O)[C@H](CO)NC(=O)[C@H](Cc3ccc(C(F)(F)F)cc3)NC(=O)[C@H](C)NC(=O)[C@H](C)NC(=O)[C@H](CC(=O)O)NC(=O)[C@H](CC(=O)O)NC1=O)NC(=O)[C@H](CC1CCCCC1)NC(=O)[C@H](CC(=O)O)NC2=O (some centres unmarked) ?
Output: 49

Input: Further, for CC(=O)N1CCC[C@]12CC=CCCCC1(CCCC=CCCCOC(=O)N3CC[C@@](C(=O)N[C@@H](Cc4ccccc4Cl)C(=O)N[C@@H](Cc4csc5ccccc45)C(=O)N[C@@H](CCC(N)=O)C(N)=O)(C3)NC(=O)[C@H](CC(N)=O)NC(=O)[C@H](Cc3ccccc3)NC(=O)[C@H](C)NC(=O)[C@H](C)NC(=O)[C@H](CN(CC(=O)O)CC(F)(F)F)NC(=O)[C@H](CC(=O)O)NC1=O)NC(=O)[C@H](CC(C)(C)C)NC(=O)[C@H](CC(=O)O)NC2=O (some centres unmarked) ?
Output: 24

Input: Further, for CC(=O)N1CCC[C@]12CC=CCCCC1(CCCC=CCCCCCC[C@@](C)(C(=O)N[C@@H](Cc3ccccc3)C(=O)N[C@@H](Cc3csc4ccccc34)C(=O)N[C@@H](CCC(N)=O)C(N)=O)NC(=O)[C@H]([C@@H](C)O)NC(=O)[C@H](Cc3ccccc3)NC(=O)[C@H](C)NC(=O)[C@H](C)NC(=O)[C@H](CCC(=O)O)NC(=O)[C@H](CC(=O)O)NC1=O)NC(=O)[C@H](C)NC(=O)[C@H](CC(=O)O)NC2=O (some centres unmarked) ?
Output: 48
